Values from the kinase profiling compilation of Christmann-Franck et al. (2016)

- target.desc: DYRK1B (human)
- protocol.description: radiometric filter-binding kinase assay, Kinase HotSpot
- test.context: compound 0.5 µM; ATP 10 µM
measured.parameter: residual activity (%)
Answers are plain numbers, in %.

Reference set (5 entries):
>  <molecule>
COc1cc2ncnc(N3CCN(C(=O)Nc4ccc(Oc5ccccc5)cc4)CC3)c2cc1OC

>  <measured.parameter>
residual activity

>  <unit.string>
%

>  <value.measured>
93.5

$$$$
>  <molecule>
O=C(Nc1cccc(Nc2cc(Nc3cccc(C(F)(F)F)c3)ncn2)c1)C1CC1

>  <measured.parameter>
residual activity

>  <unit.string>
%

>  <value.measured>
105

$$$$
>  <molecule>
O=C1Nc2ccccc2/C1=C1/Nc2ccccc2/C1=N\OCCC(O)CO (stereo not given)

>  <measured.parameter>
residual activity

>  <unit.string>
%

>  <value.measured>
65.1

$$$$
>  <molecule>
CN([C@@H](Cc1ccc(OS(=O)(=O)c2cccc3cnccc23)cc1)C(=O)N1CCN(c2ccccc2)CC1)S(=O)(=O)c1cccc2cnccc12

>  <measured.parameter>
residual activity

>  <unit.string>
%

>  <value.measured>
101

$$$$
>  <molecule>
O=C1NC(=O)C(c2c[nH]c3ccccc23)=C1c1c[nH]c2ccccc12

>  <measured.parameter>
residual activity

>  <unit.string>
%

>  <value.measured>
86.8

$$$$

Lab note: each molecule below needs its residual activity filled in.
1. O=C1NC(=O)/C(=C\c2ccc3nccnc3c2)S1
2. CCn1cnc2c(Nc3cccc(Cl)c3)nc(N[C@@H]3CCCC[C@@H]3N)nc21
3. Cc1nc2cc3nc(-c4cccs4)cnc3cc2n1C
4. O=C(O)/C=C/c1cc(Br)c(Br)c(Br)c1Br

1. 31.3
2. 94.4
3. 102
4. 79.1

Answer with the recorded residual activity for the molecule listed here: `CC(C)[C@H](CO)Nc1nc(Nc2cc(N)cc(Cl)c2)c2ncn(C(C)C)c2n1`
38.3

====

Hi there, I'd appreciate the recorded residual activity for every entry that follows.
- target.desc: RPS6KA1 KD1 KD2 (human) (UniProt Q15418)
- Sequence (Q15418 whole entry, looked up): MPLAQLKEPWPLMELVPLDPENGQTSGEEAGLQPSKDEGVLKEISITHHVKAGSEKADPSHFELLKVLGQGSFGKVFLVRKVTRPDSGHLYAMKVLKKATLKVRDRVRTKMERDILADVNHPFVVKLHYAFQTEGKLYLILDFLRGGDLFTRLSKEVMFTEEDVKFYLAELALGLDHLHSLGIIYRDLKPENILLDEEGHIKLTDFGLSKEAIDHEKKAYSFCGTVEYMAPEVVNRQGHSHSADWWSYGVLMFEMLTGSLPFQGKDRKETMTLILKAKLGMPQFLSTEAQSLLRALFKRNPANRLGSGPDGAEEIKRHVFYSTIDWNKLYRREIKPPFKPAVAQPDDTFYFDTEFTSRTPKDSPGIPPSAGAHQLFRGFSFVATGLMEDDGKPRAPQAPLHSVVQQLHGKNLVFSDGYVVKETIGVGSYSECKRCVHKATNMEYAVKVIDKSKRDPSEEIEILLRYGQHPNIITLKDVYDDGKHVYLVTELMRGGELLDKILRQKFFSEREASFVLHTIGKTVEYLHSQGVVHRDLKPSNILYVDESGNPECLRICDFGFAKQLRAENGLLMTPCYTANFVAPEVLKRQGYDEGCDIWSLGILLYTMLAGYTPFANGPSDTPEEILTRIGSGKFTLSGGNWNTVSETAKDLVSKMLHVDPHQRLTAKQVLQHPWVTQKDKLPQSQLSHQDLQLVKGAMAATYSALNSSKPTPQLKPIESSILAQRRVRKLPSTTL
- protocol.description: radiometric filter-binding kinase assay, Kinase HotSpot
- test.context: compound 0.5 µM; ATP 10 µM
Numbers only, in %.

Value sought for every listed molecule: residual activity.
1. Cc1nc2cc3nc(-c4cccs4)cnc3cc2n1C
2. O=C(O)/C=C/c1cc(Br)c(Br)c(Br)c1Br
3. Cn1nc2c3c(cccc31)C(=O)c1ccccc1-2

1: 99.4; 2: 90.5; 3: 93.7

Your task in this section: give residual activity for each listed record.
1. O=C1Nc2ccccc2/C1=C1\Nc2ccccc2\C1=N/O
2. O=C1NC(=O)C(c2c[nH]c3ccccc23)=C1c1c[nH]c2ccccc12
3. Cn1cnc2cc3c(Nc4cccc(Br)c4)ncnc3cc21

1. 39.6
2. 57.6
3. 103

====

- target.desc: LTK (human)
- protocol.description: radiometric filter-binding kinase assay, Kinase HotSpot
- test.context: compound 0.5 µM; ATP 10 µM
Label Y when residual activity >= 90%; otherwise N.

Determine whether measured residual activity meets or exceeds 90% for `COc1ccc(CNC(=O)Nc2ncc([N+](=O)[O-])s2)cc1`
Y

====

Please go through the items and note down their residual activity.
- target.desc: PLK3 (human) (UniProt Q9H4B4)
- Sequence (Q9H4B4 whole entry, looked up): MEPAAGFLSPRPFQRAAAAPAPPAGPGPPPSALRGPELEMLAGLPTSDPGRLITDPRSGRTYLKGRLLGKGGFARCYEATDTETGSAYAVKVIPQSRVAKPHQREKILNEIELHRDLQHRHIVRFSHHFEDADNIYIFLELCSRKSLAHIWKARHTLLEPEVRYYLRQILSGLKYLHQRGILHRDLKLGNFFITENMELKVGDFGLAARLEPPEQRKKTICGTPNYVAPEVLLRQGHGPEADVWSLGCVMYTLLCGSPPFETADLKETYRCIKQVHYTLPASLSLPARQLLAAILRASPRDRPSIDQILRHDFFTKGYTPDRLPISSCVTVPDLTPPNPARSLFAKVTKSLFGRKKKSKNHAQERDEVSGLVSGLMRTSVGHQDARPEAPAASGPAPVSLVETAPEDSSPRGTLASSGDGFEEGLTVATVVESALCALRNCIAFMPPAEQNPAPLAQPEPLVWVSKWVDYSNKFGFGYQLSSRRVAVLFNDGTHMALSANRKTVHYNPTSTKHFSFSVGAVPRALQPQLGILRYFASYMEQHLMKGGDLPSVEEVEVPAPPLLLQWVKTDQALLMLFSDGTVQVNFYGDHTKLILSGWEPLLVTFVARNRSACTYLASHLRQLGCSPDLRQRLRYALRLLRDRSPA
- protocol.description: radiometric filter-binding kinase assay, Kinase HotSpot
- test.context: compound 0.5 µM; ATP 10 µM
One number for each entry, in %.

>  <molecule>
COc1ccc(CNC(=O)Nc2ncc([N+](=O)[O-])s2)cc1

>  <value.measured>
101

$$$$
>  <molecule>
O=C1NC(=O)C(c2c[nH]c3ccccc23)=C1c1c[nH]c2ccccc12

>  <value.measured>
99.9

$$$$
>  <molecule>
Nc1nccc(-c2c(-c3ccc(F)cc3)ncn2C2CCNCC2)n1

>  <value.measured>
97.8

$$$$
>  <molecule>
Oc1ccc(Nc2nc(-c3ccc(Cl)cc3)cs2)cc1

>  <value.measured>
97.4

$$$$
>  <molecule>
Nc1nnc2[nH]c3ccccc3nc1-2

>  <value.measured>
96.3

$$$$

Could I get residual activity for every one of these entries?
1. O=C1Nc2ccccc2/C1=C1/Nc2ccccc2/C1=N\OCCC(O)CO (stereo unspecified)
2. COc1cc2ncc(-c3ccccc3)nc2cc1OC
3. O=C(CCCc1ccc(-c2ccccc2F)cc1)Nc1ccc(O)cc1
4. CN(C)C[C@H]1CCn2c(c(C3=C(c4cn(C)c5ccccc45)C(=O)NC3=O)c3ccccc32)C1
5. CC(=O)O/N=C1\C(=C2\C(=O)Nc3cc(Br)ccc32)Nc2ccccc21

1. 102
2. 98.3
3. 95
4. 100
5. 96.2

Write down measured residual activity (PLK3 (human) (UniProt Q9H4B4)) for this molecule. `Cn1cnc2cc3c(Nc4cccc(Br)c4)ncnc3cc21`
99.8

====

Can you tell me residual activity for the items I'm about to list?
- target.desc: CDK2 CCNE1 (human) (UniProt P24941+P24864)
- Sequence (P24864 whole entry, looked up, other chains not shown): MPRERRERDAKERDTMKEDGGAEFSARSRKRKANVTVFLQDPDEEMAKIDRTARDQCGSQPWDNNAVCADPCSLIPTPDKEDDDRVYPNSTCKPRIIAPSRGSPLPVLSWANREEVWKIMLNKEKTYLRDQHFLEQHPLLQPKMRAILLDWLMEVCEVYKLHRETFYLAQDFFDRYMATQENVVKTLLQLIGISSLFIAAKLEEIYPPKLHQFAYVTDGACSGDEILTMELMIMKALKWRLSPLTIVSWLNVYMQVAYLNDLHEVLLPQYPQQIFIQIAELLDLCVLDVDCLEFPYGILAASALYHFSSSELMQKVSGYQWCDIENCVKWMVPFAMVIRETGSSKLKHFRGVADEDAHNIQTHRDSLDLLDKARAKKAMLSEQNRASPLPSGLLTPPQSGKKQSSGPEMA
- protocol.description: radiometric filter-binding kinase assay, Kinase HotSpot
- test.context: compound 0.5 µM; ATP 10 µM
Numbers only, in %.

>  <compound>
O=C1Nc2ccccc2/C1=C1/Nc2ccccc2/C1=N\OCCC(O)CO (stereo not given)

>  <measured.parameter>
residual activity

>  <value.measured>
23.1

$$$$

Parameter requested: residual activity. Apply to each item below.
1. COc1cc2ncc(-c3ccccc3)nc2cc1OC
2. c1cc(-c2cnn3cc(-c4ccc(OCCN5CCCCC5)cc4)cnc23)ccn1
3. CN([C@@H](Cc1ccc(OS(=O)(=O)c2cccc3cnccc23)cc1)C(=O)N1CCN(c2ccccc2)CC1)S(=O)(=O)c1cccc2cnccc12

1. 85.4
2. 77.5
3. 94.9

State measured residual activity of the compound `O=C(Nc1cccc(Nc2cc(Nc3cccc(C(F)(F)F)c3)ncn2)c1)C1CC1` with CDK2 CCNE1 (human) (UniProt P24941+P24864).
96.7

====

- target.desc: STK16 (human)
- protocol.description: radiometric filter-binding kinase assay, Kinase HotSpot
- test.context: compound 0.5 µM; ATP 10 µM
Exercise: state measured residual activity for each of the compounds provided.
One number for each entry, in %.

Answered examples (8):
>  <compound>
COc1ccc(OC)c2c(=S)c3ccccc3[nH]c12

>  <measured.parameter>
residual activity

>  <value.measured>
90

$$$$
>  <compound>
COc1ccc(CNC(=O)Nc2ncc([N+](=O)[O-])s2)cc1

>  <measured.parameter>
residual activity

>  <value.measured>
99.9

$$$$
>  <compound>
O=C1Nc2ccccc2/C1=C1/Nc2ccccc2/C1=N\OCCC(O)CO (stereo not drawn)

>  <measured.parameter>
residual activity

>  <value.measured>
12.7

$$$$
>  <compound>
CN([C@@H](Cc1ccc(OS(=O)(=O)c2cccc3cnccc23)cc1)C(=O)N1CCN(c2ccccc2)CC1)S(=O)(=O)c1cccc2cnccc12

>  <measured.parameter>
residual activity

>  <value.measured>
104

$$$$
>  <compound>
O=C1Cc2c([nH]c3ccc(Br)cc23)-c2ccccc2N1

>  <measured.parameter>
residual activity

>  <value.measured>
98.9

$$$$
>  <compound>
Oc1ccc(Nc2nc(-c3ccc(Cl)cc3)cs2)cc1

>  <measured.parameter>
residual activity

>  <value.measured>
106

$$$$
>  <compound>
CCn1cnc2c(Nc3cccc(Cl)c3)nc(N[C@@H]3CCCC[C@@H]3N)nc21

>  <measured.parameter>
residual activity

>  <value.measured>
101

$$$$
>  <compound>
O=C1Nc2ccccc2/C1=C1\Nc2ccccc2\C1=N/O

>  <measured.parameter>
residual activity

>  <value.measured>
54.8

$$$$

Hi, could you look up residual activity for each item in my list?
1. CCN(CC)CCCCN1c2ccccc2Oc2ccc(Cl)cc21
2. O=C1NC(=O)/C(=C\c2ccc3nccnc3c2)S1
3. Cn1cnc2cc3c(Nc4cccc(Br)c4)ncnc3cc21

95.2
91.9
96.3

Return reported residual activity values for all items listed beneath this line.
1. O=C(CCCc1ccc(-c2ccccc2F)cc1)Nc1ccc(O)cc1
2. O=C(Nc1cccc(Nc2cc(Nc3cccc(C(F)(F)F)c3)ncn2)c1)C1CC1
3. CC(C)[C@H](CO)Nc1nc(Nc2cc(N)cc(Cl)c2)c2ncn(C(C)C)c2n1
4. CC(C)c1nn(-c2c(Cl)cccc2Cl)c2nc(Cc3ccc(OCCO)cc3)nc(O)c12

1: 111; 2: 107; 3: 74; 4: 83.8

Please state residual activity for every compound in the list that follows.
1. Nc1nccc(-c2c(-c3ccc(F)cc3)ncn2C2CCNCC2)n1
2. Cc1nc2cc3nc(-c4cccs4)cnc3cc2n1C
3. COc1cc2ncc(-c3ccccc3)nc2cc1OC
4. O=C1NC(=O)C(c2c[nH]c3ccccc23)=C1c1c[nH]c2ccccc12
5. CC(=O)O/N=C1\C(=C2\C(=O)Nc3cc(Br)ccc32)Nc2ccccc21
6. Nc1nnc2[nH]c3ccccc3nc1-2
7. COc1cc2ncnc(N3CCN(C(=O)Nc4ccc(Oc5ccccc5)cc4)CC3)c2cc1OC
8. Cn1nc2c3c(cccc31)C(=O)c1ccccc1-2

108
95.2
93.5
94.2
76.5
91.9
94.2
83.3
